# Test system: Sarcoma 180 Ascites
# Protocol Details: Sarcoma 180 Ascites (S180a) antitumor screening
# Type: in vivo, Female CFW mice
# Assay Conditions: Dose 10 mg/kg ip in water on day one; ILS ≧ 50% indicates activity
Measure: %ILS (%)
Just the number please, in %, no unit attached.

Some solved cases for reference:
Nc1ccn(C2OC(CO)C(O)C2O)c(=O)[n+]1[Pt]([NH2])([NH2])[Cl].O=[N+]([O-])[O-] (stereo not drawn) [cis-[Pt(NH₃)₂(cytidine)Cl]NO₃]	6
Nc1nc2c(c(=O)[nH]1)[n+]([Pt]([NH2])([NH2])[Cl])cn2C1OC(CO)C(O)C1O.O=[N+]([O-])[O-] (stereo not drawn) [cis-[Pt(NH₃)₂(guanosine)Cl]NO₃]	2
N.N.Nc1ccn(C2OC(CO)C(O)C2O)c(=O)n1.O=[N+]([O-])[O-].[Cl-].[Pt+2] (stereo not shown)	-12

Here is the next item to consider.
[ask] Dear colleague, I am looking for the recorded %ILS of the following molecule: N.N.Nc1ccn(C2CC(O)C(CO)O2)c(=O)n1.[Cl-].[Cl-].[Pt+2] (stereo not drawn) [cis-[Pt(NH₃)₂(2′-deoxycytidine)Cl]Cl]
[reply] 10

// provenance: patent EP0303437A2
